- Test system: human ovarian carcinoma NR+ line (SC3.2), NR transfectant
- assay_text: Cytotoxicity, 18 h drug exposure, SKOV NR+ line (SC3.2)
- Type: cell-based
- condition_info: Homo sapiens; SC3.2 cells, 18 h drug exposure; read-out: SKOV NR+ IC50
So basically, if IC50 comes in under 6 µM it's met, and if it's 6 µM or more it's not met.

                                   compound  assigned_category
0  O=C(NCC(O)CO)c1cc(N2CC2)c([N+](=O)[O-])cc1[N+](=O)[O-] (stereo not shown)                met
1  NC(=O)c1cc(N2CC2)ccc1[N+](=O)[O-] [Compound 11, 5-(aziridin-1-yl)-2-nitrobenzamide]            not met
2  NC(=O)c1c([N+](=O)[O-])ccc(N2CC2)c1[N+](=O)[O-] [Compound 13, 3-(aziridin-1-yl)-2,6-dinitrobenzamide]            not met
3  NC(=O)c1ccc([N+](=O)[O-])c(N2CC2)c1 [Compound 9, 3-(aziridin-1-yl)-4-nitrobenzamide]            not met
4  CS(=O)(=O)c1cc([N+](=O)[O-])c(N2CC2)cc1C(=O)NCC(O)CO (stereo not shown)            not met
5  NC(=O)c1cc([N+](=O)[O-])c(N2CC2)c([N+](=O)[O-])c1 [Compound 19, 4-(Aziridin-1-yl)-3,5-dinitrobenzamide]            not met
6  CS(=O)(=O)c1cc([N+](=O)[O-])c(C(N)=O)cc1N1CC1            not met
7  O=C(NCC(O)CO)c1cc([N+](=O)[O-])cc([N+](=O)[O-])c1N1CC1 (stereo not shown)            not met

Alright, here's another compound for you.
Lookup: Does this compound meet the criterion IC50 < 6 µM? `O=C(NCCn1ccnc1)c1cc(N2CC2)c([N+](=O)[O-])cc1[N+](=O)[O-]`
Found: met
